# Test system: Mus musculus
# assayRemarks: Neurotoxicity against ip dosed Swiss albino mouse after 0.5 hrs by rotarod test
# Type: toxicity, organism-based
# experimentalContext: in vivo
measure: MTC (mg/kg)
// return numeric value only (unit: mg/kg, not printed)

compound: C=C(C)[C@@H]1CC=C(C)/C(=N/NC(=O)Nc2nnc(-c3ccc(C)cc3)o2)C1
measure: MTC
measurement: 300

Looking up NC(=O)N1c2ccccc2C=Cc2ccccc21 [CARBAMAZEPINE] , I found its MTC recorded as 100

Sample O=C1NC(=O)C(c2ccccc2)(c2ccccc2)N1 ; MTC observed: 100

In plain terms, CC(C)=CC/C=C(/C)C/C=N/NC(=O)Nc1nnc(-c2ccccc2O)o1 has a documented MTC of 300

Record C=C(C)[C@@H]1CC=C(C)/C(=N/NC(=O)Nc2nnc(-c3cccc(O)c3)o2)C1 . Reported MTC: 300

MTC recorded for this compound, CC(C)=CC/C=C(/C)C/C=N/NC(=O)Nc1nnc(-c2cccc(O)c2)o1 , is 300

Where do the numbers come from? From ChEMBL document CHEMBL2321839.
